# SYSTEM_TESTED: E3 (His-APC11/APC2-"APC") (Homo sapiens, UniProt Q9NYG5+Q9UJX6)
# Sequence (Q9NYG5 whole entry): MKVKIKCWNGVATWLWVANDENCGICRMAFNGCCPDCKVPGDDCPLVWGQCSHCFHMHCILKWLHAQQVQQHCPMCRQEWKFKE
# Sequence (Q9UJX6 whole entry): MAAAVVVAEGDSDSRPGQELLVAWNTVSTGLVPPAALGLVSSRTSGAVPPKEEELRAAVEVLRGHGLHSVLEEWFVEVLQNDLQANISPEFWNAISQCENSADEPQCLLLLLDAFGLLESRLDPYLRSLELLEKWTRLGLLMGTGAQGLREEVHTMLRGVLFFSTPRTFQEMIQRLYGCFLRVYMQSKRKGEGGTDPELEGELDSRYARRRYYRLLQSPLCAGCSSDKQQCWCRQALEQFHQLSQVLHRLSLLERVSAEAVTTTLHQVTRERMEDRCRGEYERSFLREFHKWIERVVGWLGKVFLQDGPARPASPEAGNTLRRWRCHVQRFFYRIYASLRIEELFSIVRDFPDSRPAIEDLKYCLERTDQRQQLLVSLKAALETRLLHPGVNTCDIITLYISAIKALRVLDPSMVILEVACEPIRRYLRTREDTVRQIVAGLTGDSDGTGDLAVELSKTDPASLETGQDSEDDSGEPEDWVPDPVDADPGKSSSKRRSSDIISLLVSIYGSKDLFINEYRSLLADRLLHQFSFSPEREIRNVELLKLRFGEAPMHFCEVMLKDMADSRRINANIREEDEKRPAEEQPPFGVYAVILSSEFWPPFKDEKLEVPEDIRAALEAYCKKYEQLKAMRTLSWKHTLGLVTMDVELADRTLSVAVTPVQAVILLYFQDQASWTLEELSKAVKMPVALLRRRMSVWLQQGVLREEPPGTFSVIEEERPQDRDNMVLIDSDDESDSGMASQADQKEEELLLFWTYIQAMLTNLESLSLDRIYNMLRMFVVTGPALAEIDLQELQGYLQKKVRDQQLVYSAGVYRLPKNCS
# PROCEDURE_DETAILS: Plate-based E3 ligase assay (APC FLAG), auto-ubiquitination
# Type: biochemical
# Set-up: key: “+” indicates that the compound exibits inhibitory activity; “−” indicates that low or no inhibitory activity was observed
# CONDITION_NOTES: 8 concentrations tested
OBSERVATION_TYPE: APC Flag 8 pt

MOLECULE | OBSERVATION_TYPE | MEASUREMENT
O=[N+]([O-])c1ccc(Oc2c(Cl)cc(S(=O)(=O)NC3CCNCC3)cc2Cl)c(Cl)c1 | APC Flag 8 pt | −
COc1cccc(NS(=O)(=O)c2cc(Cl)c(Oc3ccc([N+](=O)[O-])cc3Cl)c(Cl)c2)c1F | APC Flag 8 pt | +
O=[N+]([O-])c1ccc(Oc2c(Cl)cc(S(=O)(=O)Nc3c(F)cccc3F)cc2Cl)c(Cl)c1 | APC Flag 8 pt | +
N#Cc1ccc(N(S(=O)(=O)c2cc(Cl)c(Oc3ccc([N+](=O)[O-])cc3Cl)c(Cl)c2)S(=O)(=O)c2cc(Cl)c(Oc3ccc([N+](=O)[O-])cc3Cl)c(Cl)c2)cc1 | APC Flag 8 pt | +
CC1(C)Oc2ccc(NS(=O)(=O)c3cc(Cl)c(Oc4ccc([N+](=O)[O-])cc4Cl)c(Cl)c3)cc2NC1=O | APC Flag 8 pt | +
O=C(Nc1cc(C(F)(F)F)ccc1Cl)N1CCC(Oc2ncccn2)CC1 | APC Flag 8 pt | −
O=C(NCC1CC1)c1cccc(NS(=O)(=O)c2cc(Cl)c(Oc3ccc([N+](=O)[O-])cc3Cl)c(Cl)c2)c1 | APC Flag 8 pt | +
O=C(Nc1ccc(Oc2ccc(F)cc2)c(Br)c1)c1cccc(Cl)c1 | APC Flag 8 pt | −

Give one value of APC Flag 8 pt per listed molecule.
1. O=[N+]([O-])c1ccc(Oc2c(Cl)cc(S(=O)(=O)Nc3cccc(Br)c3)cc2Cl)c(Cl)c1
2. N=C(NS(=O)(=O)c1cc(Cl)c(Oc2ccc([N+](=O)[O-])cc2Cl)c(Cl)c1)c1cccnc1
3. N#Cc1cccc(NS(=O)(=O)c2cc(Cl)c(Oc3ccc([N+](=O)[O-])cc3Cl)c(Cl)c2)c1

[reply]
1: +; 2: −; 3: +

Required: APC Flag 8 pt, one value per molecule below.
1. O=[N+]([O-])c1ccc(Oc2c(Cl)cc(S(=O)(=O)Nc3ccc(Cl)cc3)cc2Cl)c(Cl)c1
2. O=[N+]([O-])c1ccc(Oc2c(Cl)cc(S(=O)(=O)Nc3cccc4cccnc34)cc2Cl)c(Cl)c1
3. O=[N+]([O-])c1ccc(Oc2c(Cl)cc(S(=O)(=O)Nc3cc(F)ccc3C(F)(F)F)cc2Cl)c(Cl)c1
4. N=C(NS(=O)(=O)c1cc(Cl)c(Oc2ccc([N+](=O)[O-])cc2Cl)c(Cl)c1)c1ccccn1

[reply]
1. −
2. +
3. +
4. −

###

# SYSTEM_TESTED: E3 (His-APC11/APC2-"APC") (Homo sapiens, UniProt Q9NYG5+Q9UJX6)
# PROCEDURE_DETAILS: Plate-based E3 ligase assay (APC FLAG), auto-ubiquitination
# Type: biochemical
# Parameters: key: “+” indicates that the compound exibits inhibitory activity; “−” indicates that low or no inhibitory activity was observed
# CONDITION_NOTES: 8 concentrations tested
OBSERVATION_TYPE: APC Flag 8 pt

Reference set (5 entries):
COMPOUND | APC Flag 8 pt
O=S(=O)(Nc1cc(C(F)(F)F)ccc1Cl)c1ccc(Oc2ncc(C(F)(F)F)cc2Cl)cc1 | +
COc1cccc(NS(=O)(=O)c2cc(Cl)c(Oc3ccc([N+](=O)[O-])cc3Cl)c(Cl)c2)c1 | +
O=[N+]([O-])c1ccc(Oc2c(Cl)cc(S(=O)(=O)Nc3cc(F)ccc3F)cc2Cl)c(Cl)c1 | +
O=[N+]([O-])c1ccc(Oc2c(Cl)cc(S(=O)(=O)Nc3ccc(F)c(Cl)c3)cc2Cl)c(Cl)c1 | +
O=[N+]([O-])c1ccc(Oc2c(Cl)cc(S(=O)(=O)N3CCCC3)cc2Cl)c(Cl)c1 | −

Can you give me APC Flag 8 pt for all of these, one by one?
1. O=[N+]([O-])c1ccc(Oc2ccc(S(=O)(=O)Nc3cccc(Br)c3)cc2Cl)c(C(F)(F)F)c1
2. O=[N+]([O-])c1ccc(Oc2c(Cl)cc(S(=O)(=O)Nc3cc(F)cc(F)c3)cc2Cl)c(Cl)c1
3. O=[N+]([O-])c1ccc(Oc2c(Cl)cc(S(=O)(=O)Nc3ccc(F)c(F)c3)cc2Cl)c(Cl)c1

[reply]
1. +
2. +
3. +

Report APC Flag 8 pt for every entry below.
1. CN(c1cccc(Cl)c1)S(=O)(=O)c1cc(Cl)c(Oc2ccc([N+](=O)[O-])cc2Cl)c(Cl)c1
2. N=C(NS(=O)(=O)c1cc(Cl)c(Oc2ccc([N+](=O)[O-])cc2Cl)c(Cl)c1)c1cccc([N+](=O)[O-])c1
3. Cc1cccc(C)c1N(S(=O)(=O)c1cc(Cl)c(Oc2ccc([N+](=O)[O-])cc2Cl)c(Cl)c1)S(=O)(=O)c1cc(Cl)c(Oc2ccc([N+](=O)[O-])cc2Cl)c(Cl)c1
4. CNS(=O)(=O)c1cc(Cl)c(Oc2ccc([N+](=O)[O-])cc2Cl)c(Cl)c1

[reply]
1. −
2. +
3. +
4. +

Report APC Flag 8 pt for each item below.
1. O=[N+]([O-])c1ccc(Oc2c(Cl)cc(S(=O)(=O)NCc3ccc(Cl)cc3)cc2Cl)c(Cl)c1
2. O=S(=O)(Nc1cc(Cl)ccc1Cl)c1ccc(Oc2ncc(C(F)(F)F)cc2Cl)cc1
3. N=C(N)NCCC[C@H](NS(=O)(=O)c1cc(Cl)c(Oc2ccc([N+](=O)[O-])cc2Cl)c(Cl)c1)C(N)=O
4. O=[N+]([O-])c1ccc(Oc2c(Cl)cc(S(=O)(=O)Nc3cc(Br)cc(Br)n3)cc2Cl)c(Cl)c1
5. Cc1cccc(C(C)C)c1NS(=O)(=O)c1cc(Cl)c(Oc2ccc([N+](=O)[O-])cc2Cl)c(Cl)c1
6. O=C(Nc1cccc(Cl)c1)Nc1ccc(Oc2ccc(F)cc2)c(Br)c1

[reply]
−
+
−
+
+
+

For each listed entry, give its APC Flag 8 pt.
1. O=C(Nc1cc(C(F)(F)F)ccc1Cl)N1CCC(Oc2ccccc2C(F)(F)F)CC1
2. O=[N+]([O-])c1ccc(Oc2c(Cl)cc(S(=O)(=O)N3CCCCC3)cc2Cl)c(Cl)c1
3. O=S(=O)(Nc1cc(F)ccc1F)c1ccc(Oc2ncc(C(F)(F)F)cc2Cl)cc1
4. NS(=O)(=O)c1cc(Cl)c(Oc2ccc([N+](=O)[O-])cc2Cl)c(Cl)c1

[reply]
1: −; 2: −; 3: +; 4: +
